target: UGT1A6 in human liver microsomes (Homo sapiens); experiment: Inhibition of serotonin glucuronidation; conditions: IC50,u (binding-corrected IC50), probe substrate serotonin; HLM
measure: IC50 (nM)
Only the number, expressed in nM, is required.

Input line: Requested read-out: IC50. Entry: C=C(C)[C@@H]1CCC(C)=C[C@H]1c1c(O)cc(CCCCC)cc1O [CBD, cannabidiol]
Output line: 1400

---

target: UGT1A9 in human kidney microsomes (Homo sapiens); assay: Inhibition of propofol glucuronidation; conditions: IC50,u (binding-corrected IC50), probe substrate propofol; HKM
measure: pIC50
Convention used: pIC50 is expressed as -log10 of the molar concentration.

C=C(C)[C@@H]1CCC(C)=C[C@H]1c1c(O)cc(CCCCC)cc1O
6.47

Now examine the next entry.
Input line: Form: Entry = "CCCCCc1cc(O)c2c(c1)OC(C)(C)c1ccc(C)cc1-2" | System = UGT1A9 in human kidney microsomes (Homo sapiens) | pIC50 = ____
Output line: 6.05

---

molecular target: UGT2B4 (Homo sapiens); assay: Inhibition of codeine glucuronidation in rUGT2B4 microsomes; type: in vitro ADME; conditions: IC50,u (binding-corrected IC50), probe substrate codeine
Sequence (P06133 24-528): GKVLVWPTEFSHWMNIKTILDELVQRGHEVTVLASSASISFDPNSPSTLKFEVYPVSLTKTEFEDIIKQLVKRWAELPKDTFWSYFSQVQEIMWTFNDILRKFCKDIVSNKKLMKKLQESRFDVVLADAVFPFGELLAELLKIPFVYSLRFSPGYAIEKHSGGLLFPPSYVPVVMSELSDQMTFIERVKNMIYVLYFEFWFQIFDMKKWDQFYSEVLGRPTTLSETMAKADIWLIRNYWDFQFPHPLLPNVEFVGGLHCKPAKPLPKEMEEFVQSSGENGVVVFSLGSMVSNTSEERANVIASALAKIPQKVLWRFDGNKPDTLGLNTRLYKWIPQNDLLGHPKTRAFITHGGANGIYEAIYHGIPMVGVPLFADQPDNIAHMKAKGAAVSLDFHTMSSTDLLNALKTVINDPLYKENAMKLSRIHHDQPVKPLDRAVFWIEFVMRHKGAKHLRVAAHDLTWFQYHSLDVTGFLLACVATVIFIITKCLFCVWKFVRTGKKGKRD
measure: pIC50
Convention used: pIC50 is expressed as -log10 of the molar concentration.

Input line: Requested read-out: pIC50. Entry: "C=C(C)[C@@H]1CCC(C)=C[C@H]1c1c(O)cc(CCCCC)cc1O"
Output line: 6.66

---

target: UniProt P19224; experiment: Inhibition of serotonin glucuronidation; settings: IC50, probe substrate serotonin; HKM
measure: pIC50
Convention used: pIC50 is expressed as -log10 of the molar concentration.

Input line: Form: Entry = "C=C(C)[C@@H]1CCC(C)=C[C@H]1c1c(O)cc(CCCCC)cc1O" | System = UniProt P19224 | pIC50 = ____
Output line: 4.77

---

Target: UGT1A9 in human liver microsomes (Homo sapiens, UniProt O60656)
Sequence (O60656 26-530): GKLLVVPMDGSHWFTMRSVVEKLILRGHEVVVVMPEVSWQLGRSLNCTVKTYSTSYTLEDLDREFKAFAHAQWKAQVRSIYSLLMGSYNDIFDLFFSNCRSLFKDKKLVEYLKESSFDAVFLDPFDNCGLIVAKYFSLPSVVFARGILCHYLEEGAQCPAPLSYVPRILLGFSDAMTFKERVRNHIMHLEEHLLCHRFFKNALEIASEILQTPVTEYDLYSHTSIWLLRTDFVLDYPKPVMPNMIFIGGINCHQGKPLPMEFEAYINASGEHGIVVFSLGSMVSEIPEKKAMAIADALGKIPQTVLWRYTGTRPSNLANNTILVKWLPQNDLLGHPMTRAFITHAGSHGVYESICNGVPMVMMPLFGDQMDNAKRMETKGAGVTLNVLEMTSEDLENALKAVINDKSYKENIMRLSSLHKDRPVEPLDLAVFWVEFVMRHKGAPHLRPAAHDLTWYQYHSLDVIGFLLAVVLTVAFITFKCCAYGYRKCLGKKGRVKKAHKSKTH
Experiment: biochemical
Settings: IC50, probe substrate propofol; HLM
List of pIC50 values.
Convention used: pIC50 is expressed as -log10 of the molar concentration.

Input line: Form: Entry = "CCCCCc1cc(O)c2c(c1)OC(C)(C)c1ccc(C)cc1-2" | System = UGT1A9 in human liver microsomes (Homo sapiens, UniProt O60656) | pIC50 = ____
Output line: 4.51

Input line: Form: Entry = "C=C(C)[C@@H]1CCC(C)=C[C@H]1c1c(O)cc(CCCCC)cc1O" | System = UGT1A9 in human liver microsomes (Homo sapiens, UniProt O60656) | pIC50 = ____
Output line: 4.72

---

Biological target: UGT1A6 (Homo sapiens)
Sequence (P19224 27-532): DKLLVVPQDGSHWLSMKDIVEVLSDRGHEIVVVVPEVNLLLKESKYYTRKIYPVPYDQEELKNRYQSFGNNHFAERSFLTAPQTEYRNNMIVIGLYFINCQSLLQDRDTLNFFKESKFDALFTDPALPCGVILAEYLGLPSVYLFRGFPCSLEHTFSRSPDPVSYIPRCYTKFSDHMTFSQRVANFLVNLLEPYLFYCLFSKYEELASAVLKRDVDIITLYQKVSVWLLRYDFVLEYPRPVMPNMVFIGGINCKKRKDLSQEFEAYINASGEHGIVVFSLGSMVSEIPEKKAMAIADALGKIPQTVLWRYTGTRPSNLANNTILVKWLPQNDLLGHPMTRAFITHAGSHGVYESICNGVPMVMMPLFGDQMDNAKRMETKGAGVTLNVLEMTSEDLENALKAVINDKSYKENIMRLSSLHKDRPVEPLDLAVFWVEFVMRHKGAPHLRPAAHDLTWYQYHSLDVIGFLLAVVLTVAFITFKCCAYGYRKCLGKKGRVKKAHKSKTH
measure: pIC50
Convention used: pIC50 is expressed as -log10 of the molar concentration.

Input line: Form: Entry = "C=C(C)[C@@H]1CCC(C)=C[C@H]1c1c(O)cc(CCCCC)cc1O" | System = UGT1A6 (Homo sapiens) | pIC50 = ____
Output line: 6.40

---

List of IC50 values.
Target: UniProt:O60656
Sequence (O60656 26-530): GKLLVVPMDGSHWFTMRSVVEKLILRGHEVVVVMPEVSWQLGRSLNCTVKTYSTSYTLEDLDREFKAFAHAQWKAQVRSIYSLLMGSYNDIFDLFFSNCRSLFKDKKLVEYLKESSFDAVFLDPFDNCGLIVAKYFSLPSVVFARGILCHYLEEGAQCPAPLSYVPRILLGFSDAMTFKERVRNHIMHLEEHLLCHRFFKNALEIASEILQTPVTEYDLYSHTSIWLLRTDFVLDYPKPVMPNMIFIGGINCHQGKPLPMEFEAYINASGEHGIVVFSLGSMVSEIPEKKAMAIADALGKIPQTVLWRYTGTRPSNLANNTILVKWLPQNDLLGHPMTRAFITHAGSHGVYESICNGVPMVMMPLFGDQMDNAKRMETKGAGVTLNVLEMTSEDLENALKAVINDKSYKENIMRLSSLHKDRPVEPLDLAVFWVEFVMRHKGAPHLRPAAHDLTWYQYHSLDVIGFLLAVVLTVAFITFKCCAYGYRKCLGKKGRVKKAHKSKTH
Experiment: Inhibition of propofol glucuronidation in rUGT1A9 microsomes
Type: in vitro ADME
Settings: IC50, probe substrate propofol
Only the number, expressed in µM, is required.

Input line: Requested read-out: IC50. Entry: C=C(C)[C@@H]1CCC(C)=C[C@H]1c1c(O)cc(CCCCC)cc1O [CBD, cannabidiol]
Output line: 3.2

Input line: Requested read-out: IC50. Entry: CCCCCc1cc(O)c2c(c1)OC(C)(C)c1ccc(C)cc1-2 [CBN, cannabinol]
Output line: 6

---

assay: Nonspecific binding; assay type: in vitro ADME; conditions: human, incubation mixture with human liver microsomes
measure: fraction unbound
Form field (numeric): enter value without unit.

Input line: Requested read-out: fraction unbound. Entry: CCCCCc1cc(O)c2c(c1)OC(C)(C)c1ccc(C)cc1-2 [CBN, cannabinol]
Output line: 0.092

---

molecular target: UGT1A9 (Homo sapiens); test: Inhibition of acetaminophen glucuronidation in rUGT1A9 microsomes; type: in vitro ADME; conditions: IC50, probe substrate acetaminophen
List of IC50 values.
Only the number, expressed in µM, is required.

CCCCCc1cc(O)c2c(c1)OC(C)(C)c1ccc(C)cc1-2
6.9

Now examine the next entry.
Input line: Requested read-out: IC50. Entry: "C=C(C)[C@@H]1CCC(C)=C[C@H]1c1c(O)cc(CCCCC)cc1O"
Output line: 1.9

---

target: UGT1A9 (Homo sapiens, UniProt O60656); test: Inhibition of furosemide glucuronidation in rUGT1A9 microsomes; type: in vitro ADME; details: IC50, probe substrate furosemide
List of pIC50 values.
Convention used: pIC50 is expressed as -log10 of the molar concentration.

C=C(C)[C@@H]1CCC(C)=C[C@H]1c1c(O)cc(CCCCC)cc1O [CBD, cannabidiol]
5.62

Now examine the next entry.
Input line: Requested read-out: pIC50. Entry: CCCCCc1cc(O)c2c(c1)OC(C)(C)c1ccc(C)cc1-2 [CBN, cannabinol]
Output line: 5.04

---

Target: UGT1A9 in human kidney microsomes (Homo sapiens)
Sequence (O60656 26-530): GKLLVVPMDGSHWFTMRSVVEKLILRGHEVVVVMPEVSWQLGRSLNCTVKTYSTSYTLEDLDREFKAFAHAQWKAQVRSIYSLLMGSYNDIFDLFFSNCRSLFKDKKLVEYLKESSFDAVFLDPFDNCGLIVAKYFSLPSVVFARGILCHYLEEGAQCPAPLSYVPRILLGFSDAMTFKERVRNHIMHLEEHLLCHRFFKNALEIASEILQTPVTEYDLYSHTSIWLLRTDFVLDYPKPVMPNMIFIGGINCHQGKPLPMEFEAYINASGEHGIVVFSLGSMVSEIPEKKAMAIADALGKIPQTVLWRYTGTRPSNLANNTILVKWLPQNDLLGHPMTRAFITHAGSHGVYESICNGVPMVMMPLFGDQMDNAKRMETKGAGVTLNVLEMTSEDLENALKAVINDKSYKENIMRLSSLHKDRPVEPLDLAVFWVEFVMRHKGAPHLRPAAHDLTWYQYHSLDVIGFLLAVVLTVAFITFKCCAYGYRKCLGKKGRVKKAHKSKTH
Assay: Inhibition of furosemide glucuronidation
Conditions: IC50,u (binding-corrected IC50), probe substrate furosemide; HKM
List of pIC50 values.
Convention used: pIC50 is expressed as -log10 of the molar concentration.

CCCCCc1cc(O)c2c(c1)OC(C)(C)c1ccc(C)cc1-2 [CBN, cannabinol]
5.72

Input line: Requested read-out: pIC50. Entry: C=C(C)[C@@H]1CCC(C)=C[C@H]1c1c(O)cc(CCCCC)cc1O [CBD, cannabidiol]
Output line: 6.66
